experimental-details: in vitro
measurement-conditions: human, hela cells, % viability
Entries and their viability at 28.5 h, 10 µM
Numbers only here, please. The scale is %.

Solved entries:
CCC(NC(=O)CCc1cc2n(n1)CCNC2)c1cn2cccnc2n1 (stereo not drawn) [CBK307090] = 87.1
COc1cccc2ncn(CCc3n[nH]c(N)n3)c(=O)c12 [CBK307301] = 90.8
CC(=O)c1cc(C(=O)Nc2ccc(Oc3ccc4c(c3)OCO4)cc2)cs1 [CBK286327] = 92.5
Cc1nc(NC(=O)c2c(F)cccc2F)sc1C [CBK300495] = 76.1
CC(O)CN(Cc1ccc(-c2ccccc2)cc1)Cc1ccc2c(c1)OCO2 (stereo not drawn) [CBK286450] = 94.1
COCC(C)NC(=O)c1cnn2c(C(F)(F)F)cc(-c3cccs3)nc12 (stereo not drawn) [CBK307417] = 104

Exam item: Give the value of viability at 28.5 h, 10 µM reported for the following: CCn1cc(-c2cncn2CCCn2ccnc2C(C)C)cn1 [CBK282244]
Marked response: 89.4

Exam item: Give the value of viability at 28.5 h, 10 µM reported for the following: CCC(C)NS(=O)(=O)c1ccc(OCC(=O)O)cc1 (stereo not drawn) [CBK266521]
Marked response: 120

Exam item: Please look at this compound and report its viability at 28.5 h, 10 µM: COc1cc2c(cc1NC(=O)c1ccc(C)c([N+](=O)[O-])c1)oc1ccccc12 [CBK263411]
Marked response: 91.9
